- Tested on: Hep G2 cells
- assay.overview: In vitro toxicity: Hep G2 cell viability by CellTiter-Glo
- Assay type: cell-based
- condition.description: Formulation No. 010, RNA No. 331, 1 μg/mL RNA-LNPs, 72 hours post transfection, cell only = 100%
Below, each entry is listed alongside its reported In vitro cell viability (%) (Mean).
The answer is to be given in %; state only the numeric part.

Consider the following illustrative entries.
| compound | experimental.endpoint | units.text | endpoint.value |
| --- | --- | --- | --- |
| CCCCC/C=C\C/C=C\CCCCCCCC(=O)NC(COC(=O)NCCN1CCCCCC1)C(=O)OCCCCCC(=O)OCC(CCCCCCCC)CCCCCCCCCC (stereo not drawn) [Lipid 729] | In vitro cell viability (%) (Mean) | % | 80.55 |
| CCCCC/C=C\C/C=C\CCCCCCCC(=O)NC(COC(=O)NCCN1CCCCC1)C(=O)OCCCCCCCC(=O)OC(CCCCCCCC)CCCCCCCC (stereo not drawn) [Lipid 549] | In vitro cell viability (%) (Mean) | % | 88.89 |
| CCCCCCCC/C=C\CCCCCCCC(=O)NC(COC(=O)NCCN1CCCCCC1)C(=O)OCCCCCCCCOC(=O)C(CCCCCC)CCCCCCCC (stereo not drawn) [Lipid 701] | In vitro cell viability (%) (Mean) | % | 96.43 |
| CCCCC/C=C\C/C=C\CCCCCCCC(=O)NC(COC(=O)NCCN1CCCCC1)C(=O)OCCCCCC(=O)OCC(CCCCCCCC)CCCCCCCCCC (stereo not drawn) [Lipid 728] | In vitro cell viability (%) (Mean) | % | 90.20 |
| CCCCC/C=C\C/C=C\CCCCCCCC(=O)N[C@@H](COC(=O)NCCN1CCCCC1)C(=O)OCCCCCCCC(=O)OC(CCCCCCCC)CCCCCCCC [Lipid 601] | In vitro cell viability (%) (Mean) | % | 98.14 |
| CCCCC/C=C\C/C=C\CCCCCCCC(=O)NC(COC(=O)NCCN1CCCCCC1)C(=O)OCCCCCCCC(=O)OC(CCCCCCCC)CCCCCCCC (stereo not drawn) [Lipid 550] | In vitro cell viability (%) (Mean) | % | 87.47 |

Record CCCCC/C=C\C/C=C\CCCCCCCC(=O)N[C@@H](COC(=O)NCCN1CCCCCC1)C(=O)OCCCCCCCC(=O)OC(CCCCCCCC)CCCCCCCC [Lipid 602] . Reported In vitro cell viability (%) (Mean): 84.17

Record CCCCC/C=C\C/C=C\CCCCCCCC(=O)N[C@H](COC(=O)NCCN1CCCCCC1)C(=O)OCCCCCC(=O)OC(CCCCCCCC)CCCCCCCC [Lipid 730] . Reported In vitro cell viability (%) (Mean): 98.64

Record CCCCCCCC/C=C\CCCCCCCC(=O)NC(COC(=O)NCCN1CCCCC1)C(=O)OCCCCCCCCOC(=O)C(CCCCCC)CCCCCCCC (stereo not drawn) [Lipid 700] . Reported In vitro cell viability (%) (Mean): 99.10

----------
- assay.overview: LNP size and polydispersity index (PDI) by dynamic light scattering (Zetasizer)
- Assay type: physicochemical
- condition.description: Formulation No. 001, RNA No. 019 (hEPO)
- Protocol: The LNP size and polydispersity index (PDI), determined by dynamic light scattering (DLS), and zeta potential were measured by a Zetasizer machine (Malvern). RNA concentration and encapsulation efficacy (EE %) were analyzed by the Quant-IT Ribogreen kit by calculating the percentage encapsulation at 100%—(RNA-LNPs/RNA-LNPs with Triton X-100).
experimental.endpoint: PDI
No unit in the answer, please; the number alone is enough.

Consider the following illustrative entries.
| compound | PDI |
| --- | --- |
| CCCCCCCCCC(=O)OCCCCCCCOC(=O)C(COC(=O)NCCN1CCCCCC1)NC(=O)OCCCCCCCCOC(=O)C(CCCCCC)CCCCCCCC (stereo not drawn) [Lipid 934] | 0.08 |
| CCCCC/C=C\C/C=C\CCCCCCCC(=O)NC(COC(=O)NCCN1CCCCCC1)C(=O)OCCCCCCCC(=O)OC(CCCCCCCC)CCCCCCCC (stereo not drawn) [Lipid 550] | 0.04 |
| CCCCCCCCC(CCCCCC)C(=O)OCCCCCCCCOC(=O)NC(COC(=O)NCCN1CCCCC1)C(=O)OCCCCCCCCOC(=O)C(CCCCCC)CCCCCCCC (stereo not drawn) [Lipid 888] | 0.05 |
| CCCCC/C=C\C/C=C\CCCCCCCC(=O)NC(COC(=O)NCCN1CCCCC1)C(=O)OCCCCCCCC(=O)OC(CCCCCCCC)CCCCCCCC (stereo not drawn) [Lipid 549] | 0.04 |
| CCCCC/C=C\C/C=C\CCCCCCCCOC(=O)NC(COC(=O)NCCN1CCCCCC1)C(=O)OCCCCCC(=O)OCC(CCCCCCCC)CCCCCCCCCC (stereo not drawn) [Lipid 911] | 0.05 |
| CCCCCCCCCCC(CCCCCCCC)COC(=O)CCCCCOC(=O)NC(COC(=O)NCCN1CCCCC1)C(=O)OCCCCCC(=O)OCC(CCCCCCCC)CCCCCCCCCC (stereo not drawn) [Lipid 1020] | 0.06 |
| CCCCC/C=C\CCOC(=O)CCCCCOC(=O)C(COC(=O)NCCN1CCCCCC1)NC(=O)OCCCCCCCCOC(=O)C(CCCCCC)CCCCCCCC (stereo not drawn) [Lipid 955] | 0.14 |
| CCCCC/C=C\C/C=C\CCCCCCCC(=O)N[C@@H](COC(=O)NCCN1CCCCCC1)C(=O)OCCCCCCCC(=O)OC(CCCCCCCC)CCCCCCCC [Lipid 602] | 0.04 |

Record CCCCCCCCCCC(CCCCCCCC)COC(=O)CCCCCOC(=O)NC(COC(=O)NCCN1CCCCCC1)C(=O)OCCCCCC(=O)OCC(CCCCCCCC)CCCCCCCCCC (stereo not drawn) [Lipid 1021] . Reported PDI: 0.04

Record CCCCCCCCCCCOC(=O)CCCCCOC(=O)C(COC(=O)NCCN1CCCCCC1)NC(=O)OCCCCCCCCOC(=O)C(CCCCCC)CCCCCCCC (stereo not drawn) [Lipid 924] . Reported PDI: 0.16

Record CCCCCCCC/C=C\CCCCCCCC(=O)NC(COC(=O)NCCN1CCCCC1)C(=O)OCCCCCCCCOC(=O)C(CCCCCC)CCCCCCCC (stereo not drawn) [Lipid 700] . Reported PDI: 0.06

Record CCCCC/C=C\C/C=C\CCCCCCCC(=O)N[C@@H](COC(=O)NCCN1CCCCC1)C(=O)OCCCCCCCC(=O)OC(CCCCCCCC)CCCCCCCC [Lipid 601] . Reported PDI: 0.04
